test system: PC-12; test: Neuroprotective activity against rat PC12 cells assessed as reversal of amyloid beta (1 to 42)-induced neuronal damage after 48 hrs by MTT assay; assay type: functional, cell-based; conditions: PC-12, 48 h
result-type: pIC50
As a rule, pIC50 stands for the negative log10 of the concentration, concentration in M.

**Q:** Specify reported pIC50 for the molecule shown: CC1CC(C)CN(CC(O)COc2c(Br)cc(C(C)(C)c3cc(Br)c(OCC(O)CN4CC(C)CC(C)C4)c(Br)c3)cc2Br)C1 (stereo unspecified)
**A:** 6.10
